Quick reference for log10 of MIC among some molecules
Tested on: Pichia kudriavzevii
Run description: Antimicrobial activity against Candida krusei by broth microdilution method
Assay type: functional
Values reflect log10 of reported MIC (µg/mL).

CCOC(=O)c1cc(-c2ccccc2)[nH]c1NNC(C)=O	1.70
COc1ccc(-c2cc(C#N)c(NNC(=O)C(C)C)[nH]2)cc1	1.70
CCOC(=O)c1cc(-c2ccccc2)[nH]c1NNC(=O)Cc1ccc(OC)cc1	1.70
CCOC(=O)c1cc(-c2ccc(C)cc2)[nH]c1NNC(=O)C(C)C	1.40
COC(=O)c1cc(-c2ccc(OC)cc2)[nH]c1NNC(C)=O	0.49
CCOC(=O)NNc1[nH]c(-c2ccc(Cl)cc2)cc1C(=O)OCC	1.70
CC(=O)NNc1[nH]c(-c2ccccc2)cc1C#N	0.49
CCOC(=O)NNc1[nH]c(-c2ccc(OC)cc2)cc1C#N	1.40

So for CCOC(=O)c1cc(-c2ccc(OC)cc2)[nH]c1NNC(=O)C(C)C , the logged log10 of MIC turned out to be 1.10

response.value for CCOC(=O)c1cc(-c2ccccc2)[nH]c1NNC(=O)CC (field: log10 of MIC) = 1.10

// recorded log10 of MIC for CCC(=O)NNc1[nH]c(-c2ccccc2)cc1C(=O)OC : 1.10

Looking up COCCC(=O)NNc1[nH]c(-c2ccccc2)cc1C#N , I see its log10 of MIC listed as 0.80

In plain terms, CCOC(=O)c1cc(-c2ccc(C)cc2)[nH]c1NNC(=O)Cc1ccc(OC)cc1 has a documented log10 of MIC of 2.00

Entry COCCC(=O)NNc1[nH]c(-c2ccccc2)cc1C(=O)OC ; log10 of MIC = 1.10

For record CCOC(=O)c1cc(-c2ccc(OC)cc2)[nH]c1NNC(C)=O the listed log10 of MIC is 1.10

// log10 of MIC lookup, molecule = CCOC(=O)c1cc(-c2ccc(OC)cc2)[nH]c1NNC(=O)CCOC , result: 1.70

----------
Listed here are compounds together with their documented MFC.
Test system: Candida parapsilosis
Run description: Antimicrobial activity against Candida parapsilosis after 72 hrs by broth microdilution method
Type: functional
Stated conditions: Lodderomyces parapsilosis

COc1ccc(-c2cc(C#N)c(NNC(=O)C(C)C)[nH]2)cc1	> 100 µg/mL

The reported MFC of the compound CCCC(=O)NNc1[nH]c(-c2ccc(OC)cc2)cc1C(=O)OCC was > 100 µg/mL

Lab note: CCCC(=O)NNc1[nH]c(-c2ccc(Cl)cc2)cc1C(=O)OCC gave MFC of > 100 µg/mL

----------
Test system: Candida parapsilosis
Run description: Antimicrobial activity against Candida parapsilosis by broth microdilution method
Format: functional
Stated conditions: Lodderomyces parapsilosis
Could you mark each record 1.0 if its MIC falls strictly under 6 µg/mL, and 0.0 if it equals or exceeds it?

CCOC(=O)NNc1[nH]c(-c2ccccc2)cc1C(=O)OC	1.0
CCOC(=O)c1cc(-c2ccc(OC)cc2)[nH]c1NNC(=O)CC	0.0
COCC(=O)NNc1[nH]c(-c2ccccc2)cc1C#N	0.0
CCOC(=O)c1cc(-c2ccc(Cl)cc2)[nH]c1NNC(=O)Cc1ccc(OC)cc1	0.0
CCOC(=O)c1cc(-c2ccc(Cl)cc2)[nH]c1NNC(=O)C(C)C	0.0

Okay, next one:
Q. State whether 6 µg/mL exceeds MIC recorded for CCC(=O)NNc1[nH]c(-c2ccccc2)cc1C(=O)OC .
A. 0.0

----------
Catalogue of MFC values
Test system: Pichia kudriavzevii
Run description: Antimicrobial activity against Candida krusei after 72 hrs by broth microdilution method
Type: functional

Solved cases below.
CCOC(=O)c1cc(-c2ccc(OC)cc2)[nH]c1NNC(=O)C(C)C	> 100 µg/mL
CCOC(=O)c1cc(-c2ccc(Cl)cc2)[nH]c1NNC(=O)C(C)C	> 100 µg/mL

MFC in this record for CCOC(=O)c1cc(-c2ccc(C)cc2)[nH]c1NNC(C)=O : > 100 µg/mL

Just so you know, measured MFC for CCCC(=O)NNc1[nH]c(-c2ccc(Cl)cc2)cc1C(=O)OCC came out at > 100 µg/mL

----------
System: Pichia kudriavzevii
Run description: Antimicrobial activity against Candida krusei by broth microdilution method
Type: functional
Assay metric: MIC (µg/mL)
Value expressed in µg/mL; do not type the unit.

Measured MIC (Pichia kudriavzevii), entry CCC(=O)NNc1[nH]c(-c2ccccc2)cc1C#N : 1.56

----------
Tested on: Candida parapsilosis
Run description: Antimicrobial activity against Candida parapsilosis by broth microdilution method
Type: functional
Stated conditions: Lodderomyces parapsilosis
Assay metric: log10(MIC) (log10 of the value in µg/mL)
Could you please treat all values as log10 of MIC in µg/mL?

Here are 2 compounds together with their reported answers.
CCOC(=O)c1cc(-c2ccccc2)[nH]c1NNC(=O)C(C)C	1.40
CCOC(=O)NNc1[nH]c(-c2ccc(OC)cc2)cc1C#N	1.40

What the record says about CCOC(=O)c1cc(-c2ccc(C)cc2)[nH]c1NNC(=O)Cc1ccc(OC)cc1 : log10(MIC) is 2.00

Entry CC(=O)NNc1[nH]c(-c2ccccc2)cc1C#N ; log10(MIC) = 0.49

Per the record, CCC(=O)NNc1[nH]c(-c2ccc(OC)cc2)cc1C#N has log10(MIC) of -0.11

----------
Test system: Pichia kudriavzevii
Run description: Antimicrobial activity against Candida krusei by broth microdilution method
Assay type: functional
// returns no (0) unless MIC is strictly below 20 µg/mL, in which case yes (1)

The following molecules have reported results that may help.
CCCC(=O)NNc1[nH]c(-c2ccc(Cl)cc2)cc1C(=O)OCC	no (0)
CCOC(=O)c1cc(-c2ccc(Cl)cc2)[nH]c1NNC(=O)C(C)C	no (0)
CCOC(=O)c1cc(-c2ccccc2)[nH]c1NNC(=O)C(C)C	no (0)
CCC(=O)NNc1[nH]c(-c2ccc(OC)cc2)cc1C(=O)OC	yes (1)
CCOC(=O)NNc1[nH]c(-c2ccc(OC)cc2)cc1C(=O)OCC	yes (1)
COCC(=O)NNc1[nH]c(-c2ccc(OC)cc2)cc1C#N	yes (1)

Turning to the following molecule.
Q. For this molecule, is MIC lower than 20 µg/mL? CCOC(=O)NNc1[nH]c(-c2ccccc2)cc1C(=O)OC
A. yes (1)

----------
Measured MIC, listed per entry.
Test system: Candida parapsilosis
Run description: Antimicrobial activity against Candida parapsilosis by broth microdilution method
Assay type: functional
Stated conditions: Lodderomyces parapsilosis

Example cases with answers are listed next.
CCOC(=O)NNc1[nH]c(-c2ccc(OC)cc2)cc1C(=O)OCC	6.25 µg/mL
OC(Cn1cncn1)(Cn1cncn1)c1ccc(F)cc1F	0.39 µg/mL
CCOC(=O)NNc1[nH]c(-c2ccc(OC)cc2)cc1C(=O)OC	25 µg/mL

Now look at this entry.
Note to self: MIC of CCOC(=O)c1cc(-c2ccccc2)[nH]c1NNC(=O)Cc1ccc(OC)cc1 with Candida parapsilosis was 50 µg/mL

----------
Test system: Pichia kudriavzevii
Run description: Antimicrobial activity against Candida krusei by broth microdilution method
Type: functional
Assay metric: log10 MIC (log10 of the value in µg/mL)
On a log10 scale: recorded MIC, unit µg/mL.

Below: 5 molecules and their reported log10 MIC.
CCOC(=O)NNc1[nH]c(-c2ccc(OC)cc2)cc1C(=O)OC	1.70
OC(Cn1cncn1)(Cn1cncn1)c1ccc(F)cc1F	1.40
COCC(=O)NNc1[nH]c(-c2ccccc2)cc1C#N	0.80
CCOC(=O)NNc1[nH]c(-c2ccc(C)cc2)cc1C(=O)OCC	2.00
COCCC(=O)NNc1[nH]c(-c2ccc(OC)cc2)cc1C(=O)OC	0.80

Case CCOC(=O)c1cc(-c2ccccc2)[nH]c1NNC(=O)CCOC , Pichia kudriavzevii, log10 MIC recorded as 1.10

Response field log10 MIC (Pichia kudriavzevii) for item CCOC(=O)c1cc(-c2ccc(C)cc2)[nH]c1NNC(C)=O : 2.00

log10 MIC on Pichia kudriavzevii for CCC(=O)NNc1[nH]c(-c2ccc(OC)cc2)cc1C#N is -0.11

Let me check: CCOC(=O)c1cc(-c2ccc(OC)cc2)[nH]c1NNC(=O)CC , system Pichia kudriavzevii, measured log10 MIC is 1.40
